protocol: chemical genetic growth profiling, strain panel (AID 1159580);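 note: tested at 20 µM; growth read once vehicle control cultures reached saturation at 30 °C; 1 = growth at the plate median or of vehicle wells; lower values mean less growth of the strain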
statedConditions: S. cerevisiae deletion strains, growth OD, locus YDR363W, strain ESC2, hits give low values
Hit rate of the full screen: of about 5,500 compounds, about 2,000 (36%) were called active. About 18% were inconclusive and are not listed. The list shows a part of the results.
measurementLabel: normalized growth

In [3]: df
Out[3]:
                                    compound    recordedresult
 0                                NCCCCNCCCN  0.971 (inactive)
 1            CCCN(CCC)C1Cc2cc(OC)c(OC)cc2C1  0.974 (inactive)
 2  C[C@]12CCC3C(CC[C@H]4C[C@H](O)CC[C@]34C)C1CC[C@@H]2C(=O)CO (stereo not given in full)   1.02 (inactive)
 3  CN(C)CCC(c1ccccc1)c1ccccn1 (stereo not given)   1.05 (inactive)
 4       CSc1ccc(C(=O)c2[nH]c(=O)[nH]c2C)cc1  0.934 (inactive)
 5  NC(=O)c1ncn(C2OC(CO)C(O)C2O)n1 (stereo not given)      1 (inactive)
 6  COc1cc2nc(N3CCN(C(=O)C4COc5ccccc5O4)CC3)nc(N)c2cc1OC (stereo not given)   1.07 (inactive)
 7                 CN(C)C(=O)Oc1ccc[n+](C)c1  0.885 (inactive)
 8  C[C@]12CC[C@H]3[C@@H](CCC4C[C@H](O)CC[C@@]43C)[C@@H]1CC[C@@H]2O (stereo not given in full)  0.987 (inactive)
 9  CCCCS(=N)(=O)CC[C@H](N)C(=O)O (stereo not given in full)   0.99 (inactive)
10  CC(=O)[C@H]1CCC2C3CC[C@H]4C[C@H](O)CC[C@]4(C)C3CC[C@@]21C (stereo not given in full)   1.04 (inactive)
11  Nc1ccc(CCNc2ncnc3c2ncn3C2OC(CO)C(O)C2O)cc1 (stereo not given)  0.988 (inactive)
12                 c1ccc2c(c1)[I+]c1ccccc1-2    0.302 (active)
13  CC1(C)C(=O)N(CCN2CCC(C(=O)c3ccc(F)cc3)CC2)c2ccccc21  0.992 (inactive)
14  COc1ccc(NC(=O)c2ccc(-c3ccc(-c4noc(C)n4)cc3C)cc2)cc1N1CCN(C)CC1  0.959 (inactive)

----------
Items are presented alongside their recorded normalized growth.
protocol: chemical genetic growth profiling, strain panel (AID 1159580);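 note: tested at 20 µM; growth read once vehicle control cultures reached saturation at 30 °C; 1 = growth at the plate median or of vehicle wells; lower values mean less growth of the strain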
statedConditions: S. cerevisiae deletion strains, growth OD, locus YCL011C, strain gbp2, hits give low values
Hit rate of the full screen: of about 5,500 compounds, about 2,000 (36%) were called active. About 18% were inconclusive and are not listed. Some of the results follow.

compound	normalized growth
CCC(C)C(=O)c1c(O)c(C)c2oc3c(C)c(O)c(C(=O)C(C)CC)c(O)c3c2c1O (stereo not given)	0.98
COC(=O)[C@@H]1OC(=O)C2OC23[C@@]1(C)CCC1[C@]2(C)C(C[C@@H](O)[C@]13C)C(C)(C)[C@H](OC(C)=O)C[C@@H]2OC(C)=O (stereo not given in full)	1.01
CN(C)C(=O)Oc1ccc[n+](C)c1	0.998
NC(=O)NC1NC(=O)NC1=O (stereo not given)	1.01
C[C@H]1C[C@@H](O)[C@]2(O)[C@@]13CC(=O)OC[C@@]2(C)[C@](C)(O)C(=O)C3	1.02
C=C1C(=O)[C@]23[C@H](O)[C@H]1CC[C@H]2[C@@]12CO[C@]3(O)[C@H](O)[C@@H]1C(C)(C)CC[C@@H]2O	0.983
O=C(O)C1CCCNC1 (stereo not given)	1.01
O=C(O)C(O)C(O)C(=O)O (stereo not given)	0.988
NC1(C(=O)O)CCCC1	1.02
O=C1CCCN1CC#CCN1CCCC1	1.02
